Data provenance: paper PMC10786891

assayed_system: T1, EsCas13d, nuclease-dead (Eubacterium siraeum, UniProt B0MS50, R295A;H300A;R849A;H854A)
T1 sequence: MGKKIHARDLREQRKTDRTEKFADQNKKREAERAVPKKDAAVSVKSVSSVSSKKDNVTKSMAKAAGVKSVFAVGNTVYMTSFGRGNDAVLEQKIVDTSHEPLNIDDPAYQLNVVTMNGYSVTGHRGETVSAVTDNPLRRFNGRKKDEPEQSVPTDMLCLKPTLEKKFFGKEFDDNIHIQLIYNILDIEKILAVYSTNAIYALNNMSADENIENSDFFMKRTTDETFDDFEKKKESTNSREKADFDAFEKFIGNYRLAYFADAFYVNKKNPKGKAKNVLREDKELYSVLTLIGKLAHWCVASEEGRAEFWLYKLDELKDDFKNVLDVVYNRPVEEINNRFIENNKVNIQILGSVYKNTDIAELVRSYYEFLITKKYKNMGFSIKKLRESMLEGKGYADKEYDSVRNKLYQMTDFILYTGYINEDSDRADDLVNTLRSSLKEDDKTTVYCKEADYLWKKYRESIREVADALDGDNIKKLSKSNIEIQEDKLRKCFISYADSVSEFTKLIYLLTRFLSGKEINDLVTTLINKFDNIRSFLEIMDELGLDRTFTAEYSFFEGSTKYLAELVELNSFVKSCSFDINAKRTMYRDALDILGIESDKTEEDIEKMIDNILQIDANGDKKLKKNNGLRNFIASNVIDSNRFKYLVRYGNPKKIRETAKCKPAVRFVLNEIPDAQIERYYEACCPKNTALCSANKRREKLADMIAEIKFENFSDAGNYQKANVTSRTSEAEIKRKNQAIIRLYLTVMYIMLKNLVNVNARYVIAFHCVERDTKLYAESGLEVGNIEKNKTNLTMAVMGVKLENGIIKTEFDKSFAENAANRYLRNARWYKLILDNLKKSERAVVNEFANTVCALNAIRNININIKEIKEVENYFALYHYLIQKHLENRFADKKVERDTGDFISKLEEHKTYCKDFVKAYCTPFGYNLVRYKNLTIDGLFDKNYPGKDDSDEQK
test_method_notes: crRNA (strand 1, pre-loaded); Mg2+; 40 mM Tris-HCl pH 7.5, 150 mM NaCl, 6 mM MgCl2, 1 mM DTT, 0.1% Tween-20, 0.2 mg/ml BSA; 25 C; 10 min per concentration, then washed
reported_conditions: tags: His6-TwinStrep-SUMO cleaved; N-terminal SNAP kept (SNAP-Surface 488); label: 3' end held by stalled T7 RNA polymerase
readout_label: pKd
Would you please state pKd, meaning minus log10 of the concentration in mol/L, as a bare number?

Q: Output pKd of target 1 MT 5'PFS CUG 3'PFS CUA (mixed) RNA 1: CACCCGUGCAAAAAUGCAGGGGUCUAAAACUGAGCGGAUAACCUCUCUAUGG RNA 2: GGGAAUGGAUCCACAUCUACGAAUUCCUGCCAUAGAGAGGUUAUCCGCUCACUAAGAUCGGAAGAGCACACGU
Ans: 8.24

Q: Output pKd of target 1 insC 3' of 9,insA 3' of 8 (mixed) RNA 1: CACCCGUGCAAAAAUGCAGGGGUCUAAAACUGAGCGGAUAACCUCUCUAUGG RNA 2: GGGAAUGGAUCCACAUCUACGAAUUCGUACCAUAGAGAGGUUACUACCGCUCACCGAGAUCGGAAGAGCACACGU
Ans: 8.06

Q: Output pKd of target 1 insU 3' of 20,insA 3' of 17 (mixed) RNA 1: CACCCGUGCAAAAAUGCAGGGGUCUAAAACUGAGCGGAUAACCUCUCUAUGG RNA 2: GGGAAUGGAUCCACAUCUACGAAUUCGUACCAUUAGAAGAGGUUAUCCGCUCACCGAGAUCGGAAGAGCACACGU
Ans: 7.56

Q: Output pKd of target 1 insG 3' of 14,insA 3' of 12 (mixed) RNA 1: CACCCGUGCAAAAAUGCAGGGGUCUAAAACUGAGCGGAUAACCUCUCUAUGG RNA 2: GGGAAUGGAUCCACAUCUACGAAUUCGUACCAUAGAGAGGGAUUAUCCGCUCACCGAGAUCGGAAGAGCACACGU
Ans: 7.63

Q: Output pKd of target 2 MT 5'PFS GGC 3'PFS AUA (mixed) RNA 1: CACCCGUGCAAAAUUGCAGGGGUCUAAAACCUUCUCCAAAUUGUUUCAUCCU RNA 2: GGGAAUGGAUCCACAUCUACGAAUUCGGCAGGAUGAAACAAUUUGGAGAAGAUAAGAUCGGAAGAGCACACGU
Ans: 7.97

Q: Output pKd of target 1 insG 3' of 6,insA 3' of 6 (mixed) RNA 1: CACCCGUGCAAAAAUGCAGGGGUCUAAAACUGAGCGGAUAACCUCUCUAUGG RNA 2: GGGAAUGGAUCCACAUCUACGAAUUCGUACCAUAGAGAGGUUAUCCGAGCUCACCGAGAUCGGAAGAGCACACGU
Ans: 7.97

Q: Output pKd of target 2 MT 5'PFS CUG 3'PFS UCA (mixed) RNA 1: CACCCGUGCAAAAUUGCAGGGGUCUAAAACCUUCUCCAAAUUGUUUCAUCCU RNA 2: GGGAAUGGAUCCACAUCUACGAAUUCCUGAGGAUGAAACAAUUUGGAGAAGUCAAGAUCGGAAGAGCACACGU
Ans: 8.30

Q: Output pKd of target 1 G17A,C22A (mixed) RNA 1: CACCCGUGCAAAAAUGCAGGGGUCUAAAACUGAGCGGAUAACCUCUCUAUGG RNA 2: GGGAAUGGAUCCACAUCUACGAAUUCGUAACAUAAAGAGGUUAUCCGCUCACCGAGAUCGGAAGAGCACACGU
Ans: 7.24
